- assay-remarks: Inhibition of MMLV reverse transcriptase using desoxynucleotide triphosphate as substrate after 10 mins by RT-PCR analysis
- Parameters: species or system Moloney murine leukemia virus
Measured pIC50 of individual entries
By convention, pIC50 is the negative base-10 log of a molar concentration.

>>> assay_result("C=CCc1c(O)c2ccccc2oc1=O")
4.29

Read the next record carefully.
Exam item: Quickly give me recorded pIC50 for O=c1ccc2ccccc2o1 [COUMARIN]
Marked response: 4.41
